B1: library; a variant is named by its letters at N, in order (parent)
chain: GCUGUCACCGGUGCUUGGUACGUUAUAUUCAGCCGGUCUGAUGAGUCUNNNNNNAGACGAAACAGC

Variants of: B1
Experiment: normalized RNA/DNA level without ligand (relative to sTRSVctl = 100) (log10 (% of sTRSVctl)); HEK293T overexpressing SLC46A1; higher = less ribozyme self-cleavage, higher mRNA level
Conditions: without (6R,S)-folinic acid; ligand present: no
reported-endpoint: normalized RNA/DNA level without ligand (log10)

I'd like to know its normalized RNA/DNA level without ligand (log10). The variant in question is GCUGUCACCGGUGCUUGGUACGUUAUAUUCAGCCGGUCUGAUGAGUCUGGUGUAAGACGAAACAGC [GGUGUA]
1.97

// query normalized RNA/DNA level without ligand (log10) value for entry GCUGUCACCGGUGCUUGGUACGUUAUAUUCAGCCGGUCUGAUGAGUCUCACCGUAGACGAAACAGC [CACCGU]
2.02

Quick one: normalized RNA/DNA level without ligand (log10) for GCUGUCACCGGUGCUUGGUACGUUAUAUUCAGCCGGUCUGAUGAGUCUCGAGGCAGACGAAACAGC [CGAGGC] ?
2.03

Which normalized RNA/DNA level without ligand (log10) is reported for this variant? GCUGUCACCGGUGCUUGGUACGUUAUAUUCAGCCGGUCUGAUGAGUCUGGGGUCAGACGAAACAGC [GGGGUC]
2.02

Which normalized RNA/DNA level without ligand (log10) is reported for this variant? GCUGUCACCGGUGCUUGGUACGUUAUAUUCAGCCGGUCUGAUGAGUCUAUUAUUAGACGAAACAGC [AUUAUU]
2.02

Could you tell me which normalized RNA/DNA level without ligand (log10) is on file for GCUGUCACCGGUGCUUGGUACGUUAUAUUCAGCCGGUCUGAUGAGUCUCCUUACAGACGAAACAGC [CCUUAC] ?
2.02

Name the reported normalized RNA/DNA level without ligand (log10) value associated with the variant GCUGUCACCGGUGCUUGGUACGUUAUAUUCAGCCGGUCUGAUGAGUCUCAAGAUAGACGAAACAGC [CAAGAU]
1.97

Look at this variant and give its reported normalized RNA/DNA level without ligand (log10). GCUGUCACCGGUGCUUGGUACGUUAUAUUCAGCCGGUCUGAUGAGUCUCCGAUAAGACGAAACAGC [CCGAUA]
2

Using the record for GCUGUCACCGGUGCUUGGUACGUUAUAUUCAGCCGGUCUGAUGAGUCUGUGCGUAGACGAAACAGC [GUGCGU] , report its normalized RNA/DNA level without ligand (log10).
1.99

// returns reported normalized RNA/DNA level without ligand (log10) for input GCUGUCACCGGUGCUUGGUACGUUAUAUUCAGCCGGUCUGAUGAGUCUGUGGCCAGACGAAACAGC [GUGGCC]
2.02

Please look up its normalized RNA/DNA level without ligand (log10): GCUGUCACCGGUGCUUGGUACGUUAUAUUCAGCCGGUCUGAUGAGUCUACCUAGAGACGAAACAGC [ACCUAG]
1.96

What normalized RNA/DNA level without ligand (log10) value was documented for this variant, GCUGUCACCGGUGCUUGGUACGUUAUAUUCAGCCGGUCUGAUGAGUCUCGGAAUAGACGAAACAGC [CGGAAU] ?
1.97

Could you tell me which normalized RNA/DNA level without ligand (log10) is on file for GCUGUCACCGGUGCUUGGUACGUUAUAUUCAGCCGGUCUGAUGAGUCUUAUAUUAGACGAAACAGC [UAUAUU] ?
1.99

Entry GCUGUCACCGGUGCUUGGUACGUUAUAUUCAGCCGGUCUGAUGAGUCUUUUCGGAGACGAAACAGC [UUUCGG] : reported normalized RNA/DNA level without ligand (log10) = ?
2

Quick one: normalized RNA/DNA level without ligand (log10) of GCUGUCACCGGUGCUUGGUACGUUAUAUUCAGCCGGUCUGAUGAGUCUUUCUGAAGACGAAACAGC [UUCUGA] ?
2.02

Look at this variant and give its reported normalized RNA/DNA level without ligand (log10). GCUGUCACCGGUGCUUGGUACGUUAUAUUCAGCCGGUCUGAUGAGUCUUUUCUAAGACGAAACAGC [UUUCUA]
2.02

Would you mind telling me what normalized RNA/DNA level without ligand (log10) value was observed for GCUGUCACCGGUGCUUGGUACGUUAUAUUCAGCCGGUCUGAUGAGUCUUCGUAUAGACGAAACAGC [UCGUAU] ?
1.97
